Values were extracted from paper PMC11855827.

Listed below: inhibition at 110 µM values for each entry.
test system: C. elegans; assay: microbe, parasite or virus in culture; details: Caenorhabditis elegans, 0 h, read-out: Percentage of motility inhibition 0 h, Table S2, C. elegans SS assay, 110 μM, 0 h, averages of 4 data points
Assay Endpoint: inhibition at 110 µM (%)

[[record]]
compound = "C[C@@H]1O[C@@H](O[C@H]2[C@H](O[C@H]3CO[C@@H](O[C@H]4CC[C@]5(C)[C@H]6CC[C@]78OC[C@@]9(CC[C@](C)(C=O)C[C@H]97)[C@H](O)C[C@@]8(C)[C@]6(C)CC[C@H]5C4(C)C)[C@H](O[C@@H]4O[C@H](CO)[C@@H](O)[C@H](O)[C@H]4O)[C@H]3O)O[C@H](CO)[C@@H](O)[C@@H]2O)[C@H](O)[C@H](O)[C@H]1O [Ardisiacrispin B]"
unit_abbrev = "%"
value_reported = 16

[[record]]
compound = "CC(CC(=O)C[C@@H](C)[C@H]1CC(=O)[C@@]2(C)C3=C(C(=O)C[C@]12C)[C@@]1(C)CCC(=O)C(C)(C)[C@@H]1C[C@@H]3O)C(=O)O (stereo partly drawn) [Ganoderic acid D]"
unit_abbrev = "%"
value_reported = 0

[[record]]
compound = "O=c1c2ccccc2[se]n1-c1ccccc1 [Ebselen]"
unit_abbrev = "%"
value_reported = 13

[[record]]
compound = "CC1COc2c(N3CCN(C)CC3)c(F)cc3c(=O)c(C(=O)O)cn1c23 (stereo not drawn) [Ofloxacin]"
unit_abbrev = "%"
value_reported = 2

[[record]]
compound = "C/C=C1\\[C@H]2C=C(C)C[C@]1(N)c1ccc(=O)[nH]c1C2 [(‐)‐Huperzine A]"
unit_abbrev = "%"
value_reported = 0

[[record]]
compound = "Nc1nc(NC2CC2)c2ncn([C@H]3C=C[C@@H](CO)C3)c2n1 [Abacavir]"
unit_abbrev = "%"
value_reported = 3


---

Measured Percentage of motility inhibition 0 h values are reported for all entries that follow.
test system: C. elegans; conditions: Table S2, C. elegans SS assay, 110 μM, 0 h, averages of 4 data points
Assay Endpoint: Percentage of motility inhibition 0 h (%)

[[record]]
molecule = "C[C@@H]1O[C@@H](O[C@H]2C(=O)c3c(O)cc(O)cc3O[C@H]2c2ccc(O)c(O)c2)[C@H](O)[C@H](O)[C@H]1O"
assay_endpoint = "Percentage of motility inhibition 0 h"
value_reported = 0

[[record]]
molecule = "O=c1c2cc(O)c(O)cc2oc2c([C@@H]3O[C@H](CO)[C@@H](O)[C@H](O)[C@H]3O)c(O)cc(O)c12"
assay_endpoint = "Percentage of motility inhibition 0 h"
value_reported = 28

[[record]]
molecule = "COc1cc2c(=O)c(-c3ccc(O)cc3)coc2cc1O[C@@H]1O[C@H](COC(C)=O)[C@@H](O)[C@H](O)[C@H]1O"
assay_endpoint = "Percentage of motility inhibition 0 h"
value_reported = 4

[[record]]
molecule = "COc1cc(-c2oc3cc(OC)c(OC)c(O)c3c(=O)c2OC)ccc1O"
assay_endpoint = "Percentage of motility inhibition 0 h"
value_reported = 17

[[record]]
molecule = "CC1(C)CC[C@]2(C(=O)O[C@@H]3O[C@H](CO)[C@@H](O)[C@H](O)[C@H]3O)CC[C@]3(C)C(=CC[C@@H]4[C@@]5(C)CC[C@H](O[C@@H]6O[C@H](C(=O)O)[C@@H](O)[C@H](O)[C@H]6O[C@@H]6O[C@H](CO)[C@@H](O)[C@H](O)[C@H]6O)C(C)(C)[C@@H]5CC[C@]43C)[C@@H]2C1 [Ginsenoside Ro]"
assay_endpoint = "Percentage of motility inhibition 0 h"
value_reported = 1

[[record]]
molecule = "O=C(/C=C/c1ccc(O)c(O)c1)OC1(C(=O)O)C[C@@H](O)C(O)[C@H](O)C1 (some centres unmarked)"
assay_endpoint = "Percentage of motility inhibition 0 h"
value_reported = 24

[[record]]
molecule = "COc1cc2c(cc1OC)[C@H]1Cc3ccc(OC)c(OC)c3CN1CC2 [D‐Tetrahydropalmatine]"
assay_endpoint = "Percentage of motility inhibition 0 h"
value_reported = 0

[[record]]
molecule = "CC1(C)CC[C@]2(C(=O)O[C@@H]3O[C@H](CO)[C@@H](O)[C@H](O)[C@H]3O)CC[C@]3(C)C(=CC[C@@H]4[C@@]5(C)C[C@@H](O)[C@H](O)C(C)(C)[C@@H]5CC[C@]43C)[C@@H]2[C@@H]1O"
assay_endpoint = "Percentage of motility inhibition 0 h"
value_reported = 0

[[record]]
molecule = "O=c1cc(-c2ccccc2)oc2cc(O[C@@H]3O[C@H](CO)[C@@H](O)[C@H](O)[C@H]3O)c(O)c(O)c12"
assay_endpoint = "Percentage of motility inhibition 0 h"
value_reported = 0

[[record]]
molecule = "Cc1ncc(C[n+]2csc(CCO)c2C)c(N)n1.O=[N+]([O-])[O-] [Thiamine nitrate]"
assay_endpoint = "Percentage of motility inhibition 0 h"
value_reported = 12

[[record]]
molecule = "CC(C)=CCC[C@@](C)(O)[C@H]1CC[C@]2(C)[C@@H]1[C@H](O)C[C@@H]1[C@@]3(C)CC[C@H](O)C(C)(C)[C@@H]3[C@@H](O[C@@H]3O[C@H](CO)[C@@H](O)[C@H](O)[C@H]3O[C@@H]3O[C@@H](C)[C@H](O)[C@@H](O)[C@H]3O)C[C@]12C [20(R)-Ginsenoside Rg2]"
assay_endpoint = "Percentage of motility inhibition 0 h"
value_reported = 0

